Values compiled from paper PMC6639853.

# targetOrSystem: UniProtKB H6A6A7
# Sequence (H6A6A7 1-399): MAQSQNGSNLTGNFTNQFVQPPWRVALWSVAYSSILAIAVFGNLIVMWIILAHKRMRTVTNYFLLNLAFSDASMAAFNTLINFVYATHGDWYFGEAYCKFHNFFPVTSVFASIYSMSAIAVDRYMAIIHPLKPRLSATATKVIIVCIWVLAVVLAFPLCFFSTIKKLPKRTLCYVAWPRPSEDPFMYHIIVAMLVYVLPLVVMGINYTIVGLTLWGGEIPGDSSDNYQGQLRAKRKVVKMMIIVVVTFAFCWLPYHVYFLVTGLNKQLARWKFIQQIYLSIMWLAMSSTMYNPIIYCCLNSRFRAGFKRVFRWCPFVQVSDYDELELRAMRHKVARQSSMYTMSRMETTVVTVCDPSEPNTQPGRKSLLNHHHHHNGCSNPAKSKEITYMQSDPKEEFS
# experimentDescription: CRE-/SRE-Luc receptor transactivation reporter assay in COS-7 cells, zebrafish Tac3ra
# Type: cell-based
# condition: SRE-Luc reporter (PKC/Ca2+), mean ± SEM, read-out: EC50 zfTac3ra SRE
Starred links: 1 amine or outer side, 2 acyl side, 3 side chain; linkers in the order of their positions; H or OH if unused. Non-standard residues stand in square brackets, D forms with d. Residues, ends and D or L forms follow the SMILES beside them. Suc = O=C(CCC(=O)[*:2])[*:1]; NMeV = CN[C@H](C(=O)O)C(C)C
The following compounds are listed with their measured EC50 values.
Write down the numeric answer in nM and omit the unit.

[Q] Need EC50, item CC[C@H](C)[C@H](NC(=O)[C@H](CC(=O)O)NC(=O)CCC(=O)O)C(=O)N[C@@H](Cc1ccccc1)C(=O)N(C)[C@H](C(=O)NCC(=O)N[C@@H](CC(C)C)C(=O)N[C@@H](CCSC)C(N)=O)C(C)C [zfNKBa analog] (Suc-DIF[NMeV]GLM-NH2)
[A] 7.88

[Q] Again, but for CC[C@H](C)[C@H](NC(=O)[C@H](CC(=O)O)NC(=O)[C@H](Cc1c[nH]cn1)NC(=O)[C@H](CCSC)NC(=O)[C@@H](N)CCC(=O)O)C(=O)N[C@@H](Cc1ccccc1)C(=O)N[C@H](C(=O)NCC(=O)N[C@@H](CC(C)C)C(=O)N[C@@H](CCSC)C(N)=O)C(C)C [zfNKBa] (H-EMHDIFVGLM-NH2)
[A] 140

[Q] Please do the same for CC[C@H](C)[C@H](NC(=O)[C@H](CC(=O)O)NC(=O)[C@H](CC(N)=O)NC(=O)[C@@H](N)Cc1ccc(O)cc1)C(=O)N[C@@H](CC(=O)O)C(=O)N[C@@H](Cc1ccc(O)cc1)C(=O)N[C@@H](CC(=O)O)C(=O)N[C@@H](CO)C(=O)N[C@@H](Cc1ccccc1)C(=O)N[C@H](C(=O)NCC(=O)N[C@@H](CC(C)C)C(=O)N[C@@H](CCSC)C(N)=O)C(C)C [zfNKF] (H-YNDIDYDSFVGLM-NH2) as well.
[A] 0.51

[Q] # iterate: CSCC[C@H](NC(=O)[C@H](CC(C)C)NC(=O)CNC(=O)[C@H](C(C)C)N(C)C(=O)[C@H](Cc1ccccc1)NC(=O)[C@H](CO)NC(=O)[C@H](CC(=O)O)NC(=O)CCC(=O)O)C(N)=O
[A] 1.15
